target: antibody raised against ETAG; assay: phage ELISA, 405 nm; anti-E-tag antibody coated
Reported values of ETAG (OD) for individual entries
Could you give me the number in OD? Just the number is fine.

Example entries begin here.
binder | uom | ETAG (OD)
DGI-2-40F-3-C10 (peptide, not shown: large carriers) peptide: WRARSSGYLFALTPNFGVPHPSSALRRMHGLMARDLRPVAAAGAPVPYPDPLEPRP | OD | 7.7
WFTHVVEKFAAAGAPVPYPDPLEPRP (peptide, not shown: large carriers) [DGI-2-40F-3-A4] | OD | 6.7
GEVDCVYALTHRFLSPQVQYHHRPVAAAGAPVPYPDPLEPRP (peptide, not shown: large carriers) [DGI-2-20C-3-A12] | OD | 8.1

Query :: Determine from records and report ETAG (OD) for DYKGRTMTSPIMSALPVYDRLHGAIGSRGQNMDAAAGAPVPYPDPLEPRP (peptide, not shown: large carriers) [DGI-2-20C-3-B3]
Result :: 7.7

Query :: Output measured ETAG (OD) for this item: LGNASSLIPFLRSVQESGVRAAAGAPVPYPDPLEPRP (peptide, not shown: large carriers) [DGI-2-20F-3-C5]
Result :: 17.7

Query :: // fetch ETAG (OD) given entry DGI-2-40F-4-E1130 (peptide, not shown: large carriers) peptide: VCRLCRLCRFSMRCGGLSLVLGSAAAFFCEVFVGFCVAAAGAPVPYPDPLEPRP
Result :: 8.3
